Test: Solubility of milvexian forms in organic solvent systems
Type: physicochemical
Details: 80/20 w/w % DCM/MeOH, 20 °C, organic solvent or mixture, 80/20 w/w % DCM/MeOH; read-out: solubility
parameter: solubility (mg/mL)
API: value field is a number in mg/mL; no unit string.

The reported value for C[C@@H]1CCC[C@H](n2cnc(-c3cc(Cl)ccc3-n3cc(Cl)nn3)cc2=O)c2cc(ccn2)-c2c(cnn2C(F)F)NC1=O in terms of solubility is 230

----------
Assay: Solubility of milvexian forms in organic solvent systems
Assay type: physicochemical
Conditions: 50/50 DCM/MeOH, 40 °C, organic solvent or mixture, 50/50 DCM/MeOH; temperature 40; read-out: Solubility in mg/mL solution
parameter: solubility (mg/mL)
API: value field is a number in mg/mL; no unit string.

The reported value for C[C@@H]1CCC[C@H](n2cnc(-c3cc(Cl)ccc3-n3cc(Cl)nn3)cc2=O)c2cc(ccn2)-c2c(cnn2C(F)F)NC1=O [Milvexian] in terms of solubility is 77

----------
Assay: Solubility of milvexian forms in organic solvent systems
Format: physicochemical
Conditions: 90/10 DCM/MeOH, 20 °C, organic solvent or mixture, thermodynamic from solid, 90/10 DCM/MeOH; 20° C.; 2 weeks; read-out: Solubility in mg/mL solution 2 weeks
Description: While heating of the feed solution is a viable solution for production, it is a more complex set-up and with risk of crashing out dissolved solids in case of cold spots and plant safety. […] Based on the data it was determined that 70/30 w/w % DCM/MeOH and 80/20 w/w % were promising solvent mixtures and more accurate solubility determination was carried out for 80/20 w/w % DCM/MeOH for both FORM A and P1.Acetone solvate at 20° C. with the results shown in Table 12 below. […]
parameter: solubility at 2 weeks (mg/mL)
API: value field is a number in mg/mL; no unit string.

The reported value for C[C@@H]1CCC[C@H](n2cnc(-c3cc(Cl)ccc3-n3cc(Cl)nn3)cc2=O)c2cc(ccn2)-c2c(cnn2C(F)F)NC1=O [P1.Acetone solvate] in terms of solubility at 2 weeks is 225

----------
Experiment: Solubility of milvexian forms in organic solvent systems
Format: physicochemical
Details: 100% MeOH, 20 °C, organic solvent or mixture, thermodynamic from solid, 100% MeOH; 20° C.; 2 weeks; read-out: Solubility in mg/mL solution 2 weeks
parameter: solubility at 2 weeks (mg/mL)
API: value field is a number in mg/mL; no unit string.

The reported value for C[C@@H]1CCC[C@H](n2cnc(-c3cc(Cl)ccc3-n3cc(Cl)nn3)cc2=O)c2cc(ccn2)-c2c(cnn2C(F)F)NC1=O [P1.Acetone solvate] in terms of solubility at 2 weeks is 4.8

----------
Experiment: Solubility in different aqueous media at 37° C.
Type: physicochemical
Conditions: sodium acetate buffer, 37 °C, pH 4.5, aqueous buffer, thermodynamic from solid, 0.05M sodium acetate buffer pH 4.5; 1 day; single replicates; read-out: Solubility, μg dissolved per mL at 37° C., replicates
parameter: solubility at 1 day (µg/mL)
API: value field is a number in µg/mL; no unit string.

The reported value for C[C@@H]1CCC[C@H](n2cnc(-c3cc(Cl)ccc3-n3cc(Cl)nn3)cc2=O)c2cc(ccn2)-c2c(cnn2C(F)F)NC1=O [P1.Acetone solvate] in terms of solubility at 1 day is 1.81
